Biological target: Chymotrypsin, from human pancreas (human, UniProt P17538 19-263)
Sequence (P17538 19-263): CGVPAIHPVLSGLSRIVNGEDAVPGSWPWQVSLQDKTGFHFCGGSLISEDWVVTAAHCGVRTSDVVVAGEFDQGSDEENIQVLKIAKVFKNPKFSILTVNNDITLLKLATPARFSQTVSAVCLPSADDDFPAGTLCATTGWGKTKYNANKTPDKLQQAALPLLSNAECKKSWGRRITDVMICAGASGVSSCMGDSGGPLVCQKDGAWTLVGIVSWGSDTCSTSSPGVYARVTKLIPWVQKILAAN
Assay: cell-based or functional assay

BINDER	% inhibition at 100 µM
FCTKSDPPICS (HELM PEPTIDE1{F.C.T.K.S.D.P.P.I.C.S.[dA].P}$PEPTIDE1,PEPTIDE1,2:R3-10:R3|PEPTIDE1,PEPTIDE1,1:R1-13:R2$$$V2.0; SMILES CC[C@H](C)[C@@H]1NC(=O)[C@@H]2CCCN2C(=O)[C@@H]2CCCN2C(=O)[C@H](CC(=O)O)NC(=O)[C@H](CO)NC(=O)[C@H](CCCCN)NC(=O)[C@H]([C@@H](C)O)NC(=O)[C@@H]2CSSC[C@H](NC1=O)C(=O)N[C@@H](CO)C(=O)N[C@H](C)C(=O)N1CCC[C@H]1C(=O)N[C@@H](Cc1ccccc1)C(=O)N2) [Example 49]	0%
ICTKSDPPXCR (HELM PEPTIDE1{I.C.T.K.S.D.P.P.[Cha].C.R.[dP].P}$PEPTIDE1,PEPTIDE1,2:R3-10:R3|PEPTIDE1,PEPTIDE1,1:R1-13:R2$$$V2.0; SMILES CC[C@H](C)[C@@H]1NC(=O)[C@@H]2CCCN2C(=O)[C@H]2CCCN2C(=O)[C@H](CCCNC(=N)N)NC(=O)[C@@H]2CSSC[C@H](NC1=O)C(=O)N[C@@H]([C@@H](C)O)C(=O)N[C@@H](CCCCN)C(=O)N[C@@H](CO)C(=O)N[C@@H](CC(=O)O)C(=O)N1CCC[C@H]1C(=O)N1CCC[C@H]1C(=O)N[C@@H](CC1CCCCC1)C(=O)N2) [Example 58]	0%
